# Tested on: Escherichia coli
# Method: Antibacterial activity against Escherichia coli NCIM 2065 assessed as growth inhibition after 48 hr by NCCLS broth dilution method
# Type: functional
# Condition info: NCIM 2065, 48 h
Measurement kind: MIC (µg/mL)

A: Cc1cc(/N=C2\C(=O)N(Cc3ccccc3)c3ccc(OC(F)(F)F)cc32)ccc1N1C(=O)c2ccc(Cl)cc2C1=O
B: Cc1cc(/N=C2\C(=O)Nc3ccc(OC(F)(F)F)cc32)ccc1N1C(=O)c2ccc(Cl)cc2C1=O
Among A and B , which shows a numerically higher MIC result? Give the chosen item's label as your response.
A
(A: 15 µg/mL, B: 10 µg/mL)
